Source of measurements: paper PMC9822280

Experiment: Stability of binimetinib and encorafenib in rat plasma under different storage conditions
Type: in vitro ADME
Settings: MQC 1800 ng/mL, n 3, read-out: Long Term Stability at −80 °C (30 Days), Recovery (%)
measured.metric: recovery at 30 days, 1800 ng/mL (%)

Cn1cnc2c(F)c(Nc3ccc(Br)cc3F)c(C(=O)NOCCO)cc21 104
COC(=O)N[C@@H](C)CNc1nccc(-c2cn(C(C)C)nc2-c2cc(Cl)cc(NS(C)(=O)=O)c2F)n1 102

====

Assay: Stability of binimetinib and encorafenib in rat plasma under different storage conditions
Assay type: in vitro ADME
Settings: HQC 2400 ng/mL, n 3, read-out: Freeze and Thaw Stability at −80 °C (3 Cycles), Recovery (%)
measured.metric: recovery at 2400 ng/mL (%)

compound	obs.value
COC(=O)N[C@@H](C)CNc1nccc(-c2cn(C(C)C)nc2-c2cc(Cl)cc(NS(C)(=O)=O)c2F)n1 [Encorafenib, encorafenib]	96.5
Cn1cnc2c(F)c(Nc3ccc(Br)cc3F)c(C(=O)NOCCO)cc21 [Binimetinib, binimetinib]	95.2
